Reference source for all entries: patent US20100004222A1

- assayName: Pharmacokinetic evaluation following intravenous and oral administration in rats
- Format: in vivo
- conditionDescription: male, Sprague-Dawley, plasma; rat; non-compartmental analysis; read-out: In vivo Clearance (converted)
readoutLabel: clearance (mL/min/kg)

A. O=C(Nc1ccc2c(c1)OCC(CO)N2)c1c(F)cc(C#CC2CC2)cc1F (stereo not drawn) [Compound 129]
B. O=C(Nc1ccc2c(c1)OCC(CO)N2)c1ccc(C#CC2CCCC2)cc1F (stereo not drawn) [Compound 126]
Prompt: Please let me know which one, A or B , has a lower measured clearance value. State the label of the item chosen.
Completion: A
(A: 1.88 mL/min/kg, B: 44.9 mL/min/kg)

1. Cc1cc(/C=C/C(F)(F)F)ccc1C(=O)Nc1ccc2cc(C(C)(C)O)cnc2c1 [Compound 303]
2. O=C(Nc1cccc2cnccc12)c1ccc(/C=C/C(F)(F)F)cc1F [Compound 160]
Prompt: Among 1 and 2 , which shows a numerically higher clearance result? // respond with label for picked entry
Completion: 2

A. Cc1cc(/C=C/C(F)(F)F)ccc1C(=O)Nc1cccc2c1CC(O)CC2 (racemic) [Compound 309]
B. CC(C)(C)C#Cc1ccc(C(=O)Nc2ccc3c(c2)OCC(CO)N3)c(F)c1 (stereo not drawn) [Compound 138]
Prompt: Which value of clearance is smaller, the one for A or the one for B ? // caller expects the label of the chosen entry
Completion: A
(A: 7.68 mL/min/kg, B: 38.7 mL/min/kg)
